Biological target: human TLR9 (Homo sapiens)
Construct: host or cells: HEK-Blue cells (HEK293-derived reporter line)
Sequence (Q9NR96 26-1032): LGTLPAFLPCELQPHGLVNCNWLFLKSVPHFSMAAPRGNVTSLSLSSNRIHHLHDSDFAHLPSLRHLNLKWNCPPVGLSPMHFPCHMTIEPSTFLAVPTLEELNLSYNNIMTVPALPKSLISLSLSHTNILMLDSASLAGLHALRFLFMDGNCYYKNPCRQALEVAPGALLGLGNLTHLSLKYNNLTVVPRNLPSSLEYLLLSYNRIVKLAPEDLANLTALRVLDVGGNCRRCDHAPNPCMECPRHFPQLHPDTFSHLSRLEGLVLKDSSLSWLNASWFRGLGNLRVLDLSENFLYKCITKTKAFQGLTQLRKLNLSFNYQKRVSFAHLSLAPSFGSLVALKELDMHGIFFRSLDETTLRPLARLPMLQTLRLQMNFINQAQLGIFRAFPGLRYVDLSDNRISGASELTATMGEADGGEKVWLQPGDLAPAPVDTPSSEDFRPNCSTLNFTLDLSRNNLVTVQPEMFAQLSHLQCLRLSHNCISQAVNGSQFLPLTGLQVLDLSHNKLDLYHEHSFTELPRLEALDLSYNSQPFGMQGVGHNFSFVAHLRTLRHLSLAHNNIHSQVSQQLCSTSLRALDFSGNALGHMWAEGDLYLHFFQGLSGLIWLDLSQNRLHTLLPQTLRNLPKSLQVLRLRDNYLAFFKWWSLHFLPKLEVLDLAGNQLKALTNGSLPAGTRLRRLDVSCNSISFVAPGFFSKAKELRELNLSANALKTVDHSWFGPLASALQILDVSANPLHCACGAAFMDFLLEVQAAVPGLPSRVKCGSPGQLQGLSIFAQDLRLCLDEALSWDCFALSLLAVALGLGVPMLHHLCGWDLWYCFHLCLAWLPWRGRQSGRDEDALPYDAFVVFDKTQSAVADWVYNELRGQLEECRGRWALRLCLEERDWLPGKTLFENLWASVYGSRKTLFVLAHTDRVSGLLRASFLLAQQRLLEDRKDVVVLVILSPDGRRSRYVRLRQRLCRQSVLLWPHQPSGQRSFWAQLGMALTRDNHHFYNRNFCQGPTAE
Assay: TLR9 inhibition reporter assay (HEK-Blue cells, secreted embryonic alkaline phosphatase reporter)
Assay type: cell-based
Details: HEK-Blue cells overexpressing human TLR9, stimulated with ODN2006 5 nM; read-out: TLR 9 IC50
measure: IC50 (nM)

// known answers, use as guide
Cn1c(-c2ccc(S(C)(=O)=O)cc2)nc2ccc(C3CCN(C4CC5CCC(C4)N5C4CCOCC4)CC3)c(F)c21 (stereo not shown) [Example 275] | 89
Cc1cc(C2CCN(C3CC4CCC(C3)N4C3CCC3)CC2)cc2[nH]c(-c3ccc(S(C)(=O)=O)c(F)c3)nc12 (stereo not shown) [Example 350] | 55
CS(=O)(=O)c1ccc(-c2nc3ccc(C4CCN(C5CCN(C6COC6)CC5)CC4)c(F)c3[nH]2)cc1 | 641
COc1ccc(-c2nc3cc(F)c(C4CCN(C5CCN(C6CC6)CC5)CC4)cc3[nH]2)cc1OC | 59
COc1ccc(-c2nc3cc(C4CCN(C5CCN(C(C)C)CC5)CC4)ccc3n2CC(F)F)cc1OC | 283
Cn1c(-c2ccc(S(C)(=O)=O)cc2)nc2cc(C3CCN(C4CC5CCC(C4)N5C4CCOCC4)CC3)cc(F)c21 (stereo not shown) [Example 211] | 165
CC(C)CN1CCC(N2CCC(c3cc(F)c4nc(-c5ccc(S(C)(=O)=O)cc5)n(C5CC5)c4c3)CC2)CC1 | 94
COCCN1C2CCC1CC(N1CCC(c3cc4c(cc3F)nc(-c3ccc(S(C)(=O)=O)cc3)n4C)CC1)C2 (single isomer, unassigned) [Example 238] | 58
CS(=O)(=O)c1ccc(-c2nc3c(F)cc(C4CCN(C5CC6CCC(C5)N6C5CCOCC5)CC4)cc3n2C2CC2)cc1 (stereo not shown) [Example 328] | 12
Cn1c(-c2ccc(S(C)(=O)=O)cc2)nc2c(F)cc(C3CCN(C4CCN(C5COC5)CC4)CC3)cc21 | 1220

I = COc1ccc(-c2nc3c(C)cc(C4CCN(C5CC6CCC(C5)N6CC5CCC5)CC4)cc3n2C)cc1OC (single isomer, unassigned) [Example 150]
II = Cn1c(-c2ccc(S(C)(=O)=O)cc2)nc2ccc(C3CCN(C4CCN(CC5CC5)CC4)CC3)c(F)c21
III = Cc1cc(C2CCN(C3CC4(C3)CN(CC3CCC3)C4)CC2)cc2c1nc(-c1ccc(S(C)(=O)=O)cc1)n2C
IV = COCCN1CCCC(N2CCC(c3cc(F)c4nc(-c5ccc(S(C)(=O)=O)cc5)n(C)c4c3)CC2)CC1 (single isomer, unassigned) [Example 302]
-- ask List items by IC50 in falling order. Your reply should list the labels following the order given in the request.
-- reply II, III, IV, I

A = Cn1c(-c2ccc(S(C)(=O)=O)cc2)nc2cc(C3CCN(C4CC5CCC(C4)N5CC4CC4)CC3)c(F)cc21 (single isomer, unassigned) [Example 249]
B = COc1ccc(-c2nc3c(C)cc(C4CCN(C5CCN(C(C)C)CC5)CC4)cc3n2C)cc1F
-- ask Between A and B , which one shows the larger IC50 value? Your choice should be expressed through its label.
-- reply B
(B: 159 nM, A: 32 nM)
